molecular target: 5-hydroxytryptamine receptor 2B (Rattus norvegicus, UniProt P30994)
Sequence (P30994 whole entry): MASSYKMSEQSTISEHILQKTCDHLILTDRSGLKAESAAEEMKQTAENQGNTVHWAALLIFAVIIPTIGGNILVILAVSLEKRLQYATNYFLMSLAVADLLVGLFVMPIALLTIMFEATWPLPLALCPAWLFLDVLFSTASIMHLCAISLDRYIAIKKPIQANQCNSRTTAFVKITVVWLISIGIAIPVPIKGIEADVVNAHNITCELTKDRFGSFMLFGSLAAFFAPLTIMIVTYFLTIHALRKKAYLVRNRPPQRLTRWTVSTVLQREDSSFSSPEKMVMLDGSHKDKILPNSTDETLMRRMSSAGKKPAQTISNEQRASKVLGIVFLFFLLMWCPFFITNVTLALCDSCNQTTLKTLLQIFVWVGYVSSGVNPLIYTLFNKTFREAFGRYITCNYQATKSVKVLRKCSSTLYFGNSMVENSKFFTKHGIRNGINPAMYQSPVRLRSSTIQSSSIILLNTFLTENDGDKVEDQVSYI
recordedMetric: Ki (nM)
Quick reminder: number only, in nM, skip the unit.

Some solved entries appear below for comparison.
Need Ki of `Clc1cccc(N2CCNCC2)c1` , thanks. 26.9

Need Ki of NCCc1c[nH]c2ccc(C(N)=O)cc12 [[3H]-5-carboxamidotryptamine] , thanks. 151

Need Ki of CN1CCc2cc(Cl)c(O)cc2[C@@H](c2ccccc2)C1 [SCH 23390,R(+)] , thanks. 83.2

Shifting focus to the compound that follows.
Need Ki of CC(C)n1cc2c3c(cccc31)C1CC(C(=O)NC3CCCCC3)CN(C)C1C2 (centres undefined) , thanks. 10.7

---

Target: 5-hydroxytryptamine receptor 2C (Rattus norvegicus, UniProt P08909)
Sequence (P08909 whole entry): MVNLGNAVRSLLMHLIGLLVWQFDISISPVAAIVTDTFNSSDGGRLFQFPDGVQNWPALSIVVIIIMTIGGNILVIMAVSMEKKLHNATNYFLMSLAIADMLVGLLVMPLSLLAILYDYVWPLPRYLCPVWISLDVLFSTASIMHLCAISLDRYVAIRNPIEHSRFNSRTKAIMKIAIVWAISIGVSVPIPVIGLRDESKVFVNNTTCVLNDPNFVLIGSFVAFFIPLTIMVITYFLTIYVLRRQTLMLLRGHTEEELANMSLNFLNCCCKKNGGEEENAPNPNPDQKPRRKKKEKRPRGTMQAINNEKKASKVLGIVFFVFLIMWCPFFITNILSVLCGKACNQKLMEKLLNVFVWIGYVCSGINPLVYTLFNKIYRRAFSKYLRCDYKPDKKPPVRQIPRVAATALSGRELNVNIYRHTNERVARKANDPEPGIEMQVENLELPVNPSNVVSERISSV
recordedMetric: pKi
In textbook form, pKi equals minus log to base ten of the concentration in mol/L.

Need pKi of `c1ccc2nc(N3CCNCC3)ccc2c1` , thanks. 6.59

New cases:
Need pKi of `Clc1cncc(N2CCNCC2)n1` , thanks. 6.47

---

Biological target: UniProtKB Q02284
Sequence (Q02284 whole entry): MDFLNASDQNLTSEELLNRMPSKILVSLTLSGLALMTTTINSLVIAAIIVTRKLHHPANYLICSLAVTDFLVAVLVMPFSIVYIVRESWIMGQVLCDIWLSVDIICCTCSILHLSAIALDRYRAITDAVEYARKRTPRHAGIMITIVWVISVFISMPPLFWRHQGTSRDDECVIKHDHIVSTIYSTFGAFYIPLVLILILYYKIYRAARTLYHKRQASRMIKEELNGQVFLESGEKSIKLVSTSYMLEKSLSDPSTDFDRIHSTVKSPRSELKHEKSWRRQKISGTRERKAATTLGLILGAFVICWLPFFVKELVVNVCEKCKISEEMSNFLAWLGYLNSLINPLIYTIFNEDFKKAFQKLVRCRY
// classify: if (Ki < 100 nM) Yes else No

Solved cases below.
Record `COC(=O)[C@@H]1[C@H]2C[C@H]3c4[nH]c5ccccc5c4CCN3C[C@@H]2CC[C@@H]1O` : is its Ki strictly below 100 nM? Yes

Record `CNS(=O)(=O)Cc1ccc2[nH]cc(CCN(C)C)c2c1` : is its Ki strictly below 100 nM? Yes

Record NCCc1c[nH]c2ccc(O)cc12 [[3H]-5-HT] : is its Ki strictly below 100 nM? No

New cases:
Record `COc1ccc2[nH]cc(C3=CCNCC3)c2c1` : is its Ki strictly below 100 nM? No
